From: PubChem BioAssay (NCI)

Experiment: NCI Yeast Anticancer Drug Screen. Data for the rad50 strain (AID 155);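 note: 0% = growth of vehicle-only cultures of the same strain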
Details: S. cerevisiae rad50 strain growth inhibition; at 50.0 µM; stronger effect = higher value
The panel holds about 79,000 compounds, 15% with a hit somewhere; the sample as a whole holds those more often.

[
  {
    "compound": "CC[O-].Cc1ccc2cccc([O-])c2n1.Cc1ccc2cccc([O-])c2n1.Cc1ccc2cccc([O-])c2n1.[Ti+4]",
    "growth inhibition (%)": -18.1
  },
  {
    "compound": "O=c1ccn(/C=C\\c2nc3ccccc3[nH]c2=O)c(=S)[nH]1",
    "growth inhibition (%)": -37.8
  },
  {
    "compound": "COc1ccc(C(CC(=O)O)c2cc3c(cc2OC)OCO3)cc1 (stereo not drawn)",
    "growth inhibition (%)": -4
  }
]
